Biological target: T1, recombinant human DKK1 (human, UniProt O94907 32-266)
T1 construct: also called Dickkopf-1; rhDKK1
T1 sequence: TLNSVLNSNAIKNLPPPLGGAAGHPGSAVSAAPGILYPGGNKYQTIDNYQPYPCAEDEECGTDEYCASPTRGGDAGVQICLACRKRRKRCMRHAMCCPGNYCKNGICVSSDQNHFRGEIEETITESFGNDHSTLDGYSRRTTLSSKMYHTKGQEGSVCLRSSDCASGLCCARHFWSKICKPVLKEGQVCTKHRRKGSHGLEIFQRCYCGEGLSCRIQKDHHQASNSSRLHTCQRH
Assay: solution equilibrium titration (SET), ECL (BioVeris), Fab

binder	unit_info	Kd
MOR04954 (Fab, V domains shown) VH: QVQLVESGGGLVQPGGSLRLSCAASGFTFSSYWMSWVRQAPGKGLEWVSVIEHKDKGGTTYYAASVKGRFTISRDNSKNTLYLQMNSLRAEDTAVYYCARHGIDFDHWGQGTLVTVSS VL: DIALTQPASVSGSPGQSITISCTGTSSDLGGYNYVSWYQQHPGKAPKLMIYDVNNRPSGVSNRFSGSKSGNTASLTISGLQAEDEADYYCQSYASGNTKVVFGGGTKLTVLG	nM	0.11
